Below is a list of entries, each paired with its recorded kon value.
target: T1, monomeric recombinant cynomologus monkey Notch3 extracellular domain (containing EGF like domains 1-12) … (cynomologus monkey); assay: SPR BIAcore T100, antibody captured by anti-human IgG Fc, monomeric rcNotch3 analyte, 37 C
T1 construct: domain: EGF like domains 1-12; also called monomeric rcNotch3
Express the result in M⁻¹ s⁻¹ but write the number alone.

Take a look at these entries with their results.
Hu4F11-79 (antibody, human IgG1, kappa, V domains shown, Humanized, human IgG1 kappa; Hv3-23 A28T T62S heavy + Kv2D-29 N28Q kappa) VH: EVQLLESGGGLVQPGGSLRLSCAASGFTFSSYDMSWVRQAPGKGLEWVSYISRGGGSTYYPDSVKGRFTISRDNSKNTLYLQMNSLRAEDTAVYYCGRHATTAYWYFDVWGQGTMVTVSS VL: DVVMTQTPLSLSVTPGQPASISCRSSQSLVHTQGNTYLHWYLQKPGQSPQLLIYKVSNRFSGVPDRFSGSGSGTDFTLKISRVEAEDVGVYFCSQSTHVPWTFGQGTKVEIKR : 980000
Hu4F11-32 (antibody, human IgG1, kappa, V domains shown, Humanized, human IgG1 kappa; Sh4F11 Hv3-23 heavy + Hu4F11 Kv2D-29 kappa) VH: EVQLLESGGGLVQPGGSLRLSCAASGFAFSSYDMSWVRQAPGKGLEWVSYISRGGGSTYYPDTVKGRFTISRDNSKNTLYLQMNSLRAEDTAVYYCGRHATTAYWYFDVWGQGTMVTVSS VL: DVVMTQTPLSLSVTPGQPASISCRSSQSLVHTNGNTYLHWYLQKPGQSPQLLIYKVSNRFSGVPDRFSGSGSGTDFTLKISRVEAEDVGVYFCSQSTHVPWTFGQGTKVEIKR : 500000

Let us examine a further case.
query: Record request: kon value, item Hu4F11-75 (antibody, human IgG1, kappa, V domains shown, Humanized, human IgG1 kappa; Hv3-23 A28T T62S heavy + Kv2D-29 N28Y kappa) VH: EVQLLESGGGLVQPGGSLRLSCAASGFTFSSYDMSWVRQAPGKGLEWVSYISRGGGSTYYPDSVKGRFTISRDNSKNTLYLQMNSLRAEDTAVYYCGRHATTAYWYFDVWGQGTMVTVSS VL: DVVMTQTPLSLSVTPGQPASISCRSSQSLVHTYGNTYLHWYLQKPGQSPQLLIYKVSNRFSGVPDRFSGSGSGTDFTLKISRVEAEDVGVYFCSQSTHVPWTFGQGTKVEIKR
result: 380000
